Target: T1, truncated cTfR1 of SEQ ID NO:123 (cynomolgus monkey, UniProt Q5RDH6 122-760 (Pongo abelii entry))
T1 construct: also called cynomolgus TfR1
T1 chain: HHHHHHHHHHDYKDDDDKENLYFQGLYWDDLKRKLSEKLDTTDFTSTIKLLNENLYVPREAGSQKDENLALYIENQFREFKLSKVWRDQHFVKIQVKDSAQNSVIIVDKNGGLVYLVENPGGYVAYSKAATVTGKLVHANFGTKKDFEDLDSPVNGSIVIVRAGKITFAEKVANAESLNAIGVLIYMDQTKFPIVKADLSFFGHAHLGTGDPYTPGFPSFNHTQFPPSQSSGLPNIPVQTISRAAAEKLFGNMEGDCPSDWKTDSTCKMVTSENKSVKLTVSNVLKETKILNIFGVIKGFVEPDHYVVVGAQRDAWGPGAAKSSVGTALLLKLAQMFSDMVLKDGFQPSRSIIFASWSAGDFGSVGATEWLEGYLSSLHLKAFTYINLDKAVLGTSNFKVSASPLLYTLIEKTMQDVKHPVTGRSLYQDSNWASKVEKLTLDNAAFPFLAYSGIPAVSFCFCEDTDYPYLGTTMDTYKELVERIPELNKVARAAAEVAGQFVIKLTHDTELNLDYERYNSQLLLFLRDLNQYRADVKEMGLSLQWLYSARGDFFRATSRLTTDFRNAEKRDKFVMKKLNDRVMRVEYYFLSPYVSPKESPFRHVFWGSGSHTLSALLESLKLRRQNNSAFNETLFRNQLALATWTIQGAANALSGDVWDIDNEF
Test: SPR, FLAG-captured TfR1, scFv injected, 1:1 fit
MEASURE: kon (M⁻¹ s⁻¹)

1. h26D3 HC6 DS T91S T120K (scFv, also called h26D3 DS T91S T120K) scFv: HHHHHHGGGGSGGGGSGGGGSGGGGSDIQMTQSPSSVSASVGDRVTITCKSSQSLLYSTNQKNYLAWYQQKPGKAPKLLIYWASTRESGVPSRFSGSGSGTDFTLTISSLQPEDFATYYCQQYFIYPRTFGCGTKVEIKGGGGSGGGGSGGGGSGGGGSEVQLVQSGAEVKKPGSSVKVSCKASGYIFTDYNMDWVRQAPGQCLEWIGDINPDADTTSYNEKFKGRATLTVDKSTSTAYMELSSLRSEDSAVYYCARGGYSGSSYYHPMDYWGQGTLVKVSS; 46700

Measured values drawn from patent US20250388664A1 for this set.
